assay: Pharmacokinetics in rats with ABT pretreatment (intestinal and hepatic availability); conditions: rat, plasma, po, 1 mg/kg
RESULT TYPE: AUC(0-t) (ng·h/mL)
Answers are plain numbers, in ng·h/mL.

Quick check: AUC(0-t) of CCN(Cc1ccccn1)C(=O)Cc1c(-c2ccc(Cl)c(Cl)c2)nc2cc(C)ccn12 ?
185

* * *

test: Bioavailability study in rats (i.v. and p.o.); type: in vivo; conditions: male, SD, rat, plasma, po, p.o. 1 mg/kg, read-out: MRT(0–t)
RESULT TYPE: MRT last (h)
Numbers only, in h.

Quick check: MRT last of CCN(Cc1ccccn1)C(=O)Cc1c(-c2ccc(Cl)c(Cl)c2)nc2cc(C)ccn12 ?
3.35

* * *

Experiment: Bioavailability study in rats (i.v. and p.o.)
Assay type: in vivo
Settings: male, SD, rat, plasma, po, p.o. 1 mg/kg, 2 h
Protocol: Male SD rats (200-240 g) were obtained from Beijing Vital River Laboratory Animal Technology Co., Ltd. Animals were housed in a temperature- and humidity-controlled room with a 12 h light/dark cycle. […] Pharmacokinetic parameters were calculated by the noncompartmental method using WinNonlin 7.0 (Pharsight, CA). The area under the plasma concentration time curve (AUC) from time 0 to the last time point with a measurable concentration (AUC0-t) was calculated by trapezoidal method. […]
RESULT TYPE: concentration at 2 h (ng/mL)
One number for each entry, in ng/mL.

Quick check: concentration at 2 h of CCN(Cc1ccccn1)C(=O)Cc1c(-c2ccc(Cl)c(Cl)c2)nc2cc(C)ccn12 ?
1.65

* * *

assay: Pharmacokinetics in rats with ABT pretreatment (intestinal and hepatic availability); details: rat, plasma, intravenous, Plasma concentration, rats, i.v. 50 mg/kg ABT, i.v. 0.5 mg/kg YL-IPA08, 4 h
RESULT TYPE: concentration at 4 h (ng/mL)
Give bare numbers, in ng/mL.

Quick check: concentration at 4 h of CCN(Cc1ccccn1)C(=O)Cc1c(-c2ccc(Cl)c(Cl)c2)nc2cc(C)ccn12 ?
17.6

* * *

experiment: Pharmacokinetics in rats with ABT pretreatment (intestinal and hepatic availability); settings: rat, plasma, oral, 1 mg/kg, Plasma concentration, rats, p.o. 100 mg/kg ABT, p.o. 1 mg/kg YL-IPA08, 8 h
RESULT TYPE: concentration at 8 h (µg/mL)
One number for each entry, in µg/mL.

Quick check: concentration at 8 h of CCN(Cc1ccccn1)C(=O)Cc1c(-c2ccc(Cl)c(Cl)c2)nc2cc(C)ccn12 [YL-IPA08] ?
0.0342

* * *

test: Bioavailability study in rats (i.v. and p.o.); type: in vivo; settings: male, SD, rat, plasma, po, p.o. 10 mg/kg, 4 h
RESULT TYPE: concentration at 4 h

Quick check: concentration at 4 h of CCN(Cc1ccccn1)C(=O)Cc1c(-c2ccc(Cl)c(Cl)c2)nc2cc(C)ccn12 [YL-IPA08] ?
5.63 ng/mL

* * *

experiment: Bioavailability study in rats (i.v. and p.o.); format: in vivo; settings: male, SD, rat, plasma, po, p.o. 10 mg/kg, 1 h
RESULT TYPE: concentration at 1 h (ng/mL)
One number for each entry, in ng/mL.

Quick check: concentration at 1 h of CCN(Cc1ccccn1)C(=O)Cc1c(-c2ccc(Cl)c(Cl)c2)nc2cc(C)ccn12 [YL-IPA08] ?
10.2

* * *

experiment: Pharmacokinetics in rats with ABT pretreatment (intestinal and hepatic availability); conditions: rat, plasma, oral, Plasma concentration, rats, p.o. 100 mg/kg ABT, p.o. 1 mg/kg YL-IPA08, 4 h
RESULT TYPE: concentration at 4 h (ng/mL)
One number for each entry, in ng/mL.

Quick check: concentration at 4 h of CCN(Cc1ccccn1)C(=O)Cc1c(-c2ccc(Cl)c(Cl)c2)nc2cc(C)ccn12 [YL-IPA08] ?
125
